measurement.description: Henry solubility constant Hcp at 298.15 K (mol/(m3 Pa))
condition.set: reference: Tse et al. (1992)
Binary call on Henry solubility constant Hcp: True from 0.004 upward, False beneath that.

Solved entries:
[[record]]
compound = "BrCBr"
cat = "True"

[[record]]
compound = "ClC(Br)Br"
cat = "True"


Would you say ClC(Cl)C(Cl)Cl shows Henry solubility constant Hcp at minimum 0.004?
True

----------
measurement.description: Henry solubility constant Hcp at 298.15 K (mol/(m3 Pa))
condition.set: reference: Tse et al. (1992)
Could you please report measured Henry solubility constant Hcp for the items listed next?
Give bare numbers.

[[record]]
compound = "ClCCl"
parameter = "Henry solubility constant Hcp"
result_value = 0.0039


The following compounds each have a reported value; give each one's Henry solubility constant Hcp.
1. C=C(Cl)Cl
2. ClC(Cl)(Cl)Cl

[0.00035, 0.00038]

Go through the list and state Henry solubility constant Hcp for each entry.
1. CC(Cl)(Cl)Cl
2. ClCC(Cl)Cl
3. ClC=C(Cl)Cl
4. CC(Cl)CCl (stereo not given)
5. ClCC(Cl)(Cl)Cl

1: 0.00063; 2: 0.011; 3: 0.0011; 4: 0.0038; 5: 0.0045

Would you be so kind as to report Henry solubility constant Hcp for each listed record?
1. ClC(Cl)Br
2. BrC(Br)Br

1. 0.0048
2. 0.019
